target: Dihydrofolate reductase (Mus musculus) (UniProt P00375); conditions: L1210
Sequence (P00375 whole entry): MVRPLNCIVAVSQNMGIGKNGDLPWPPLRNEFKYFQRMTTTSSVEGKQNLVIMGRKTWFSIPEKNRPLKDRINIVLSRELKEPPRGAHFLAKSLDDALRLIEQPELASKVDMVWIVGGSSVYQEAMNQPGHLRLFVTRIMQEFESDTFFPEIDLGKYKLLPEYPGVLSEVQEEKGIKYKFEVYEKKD
Description: Compound was tested for inhibition of L1210 dihydrofolate reductase by competitive [3H]MTX binding assay in L1210 mouse leukemia cell lines
# note: exactly 0.003 µM is not below, so it is class 0; use class 1 for ID50 strictly under it

Quick check: ID50 of CCCCNC(=O)CCC(NC(=O)c1ccc(N(C)Cc2cnc3nc(N)nc(N)c3n2)cc1)C(=O)O (stereo unspecified) under 0.003 µM?
class 0

Quick check: ID50 of CN(Cc1cnc2nc(N)nc(N)c2n1)c1ccc(C(=O)NC(CCC(=O)OC(C)(C)C)C(=O)O)cc1 (stereo unspecified) under 0.003 µM?
class 1

Quick check: ID50 of COC(=O)CCC(NC(=O)c1ccc(N(C)Cc2cnc3nc(N)nc(N)c3n2)cc1)C(=O)OC(C)(C)C (stereo unspecified) under 0.003 µM?
class 0

Quick check: ID50 of COC(=O)C(CCC(=O)OC(C)(C)C)NC(=O)c1ccc(N(C)Cc2cnc3nc(N)nc(N)c3n2)cc1 (stereo unspecified) under 0.003 µM?
class 0

Quick check: ID50 of CN(Cc1cnc2nc(N)nc(N)c2n1)c1ccc(C(=O)NC(CCC(=O)NN)C(=O)O)cc1 (stereo unspecified) under 0.003 µM?
class 0

Quick check: ID50 of CN(Cc1cnc2nc(N)nc(N)c2n1)c1ccc(C(=O)NC(CCC(=O)O)C(=O)OC(C)(C)C)cc1 (stereo unspecified) under 0.003 µM?
class 0

---

molecular target: Dihydrofolate reductase (Lactobacillus casei) (UniProt P00381); settings: Lacticaseibacillus casei
Sequence (P00381 whole entry): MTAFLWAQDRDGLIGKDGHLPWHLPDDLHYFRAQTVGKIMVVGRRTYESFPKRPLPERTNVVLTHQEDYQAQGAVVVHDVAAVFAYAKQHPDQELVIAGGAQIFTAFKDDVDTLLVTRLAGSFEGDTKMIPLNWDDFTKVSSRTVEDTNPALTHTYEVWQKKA
Description: Compound was tested for inhibition of Lactobacillus casei dihydrofolate reductase using competitive [3H]MTX binding assay
Measurement type: ID50 (µM)
Numbers only here, please. The scale is µM.

Give its ID50 value. Item: CCCCNC(=O)CCC(NC(=O)c1ccc(N(C)Cc2cnc3nc(N)nc(N)c3n2)cc1)C(=O)O (stereo not drawn)
0.036

Give its ID50 value. Item: CCCCNC(=O)CCC(NC(=O)c1ccc(N(C)Cc2cnc3nc(N)nc(N)c3n2)cc1)C(=O)OCc1ccccc1 (stereo not drawn)
0.25

Give its ID50 value. Item: COC(=O)CCC(NC(=O)c1ccc(N(C)Cc2cnc3nc(N)nc(N)c3n2)cc1)C(=O)OC(C)(C)C (stereo not drawn)
2.2

Give its ID50 value. Item: COC(=O)C(CCC(=O)OC(C)(C)C)NC(=O)c1ccc(N(C)Cc2cnc3nc(N)nc(N)c3n2)cc1 (stereo not drawn)
3.9

Give its ID50 value. Item: CN(Cc1cnc2nc(N)nc(N)c2n1)c1ccc(C(=O)NC(CCC(=O)NN)C(=O)OC(C)(C)C)cc1 (stereo not drawn)
2.2

Give its ID50 value. Item: CN(Cc1cnc2nc(N)nc(N)c2n1)c1ccc(C(=O)NC(CCC(=O)OC(C)(C)C)C(=O)O)cc1 (stereo not drawn)
0.012

Give its ID50 value. Item: CN(Cc1cnc2nc(N)nc(N)c2n1)c1ccc(C(=O)NC(CCC(=O)NN)C(=O)O)cc1 (stereo not drawn)
0.013

Give its ID50 value. Item: CN(Cc1cnc2nc(N)nc(N)c2n1)c1ccc(C(=O)NC(CCC(=O)O)C(=O)OC(C)(C)C)cc1 (stereo not drawn)
0.21

---

Assign ID50 to each entry below.
biological target: Dihydrofolate reductase (Lactobacillus casei); conditions: Lacticaseibacillus casei
Description: Compound was tested for inhibition of Lactobacillus casei dihydrofolate reductase using spectrophotometric assay at 340 nm
Returns: string containing the numeric result and its unit.

Query for Dihydrofolate reductase (Lactobacillus casei): what ID50 does the record show for CN(Cc1cnc2nc(N)nc(N)c2n1)c1ccc(C(=O)NC(CCC(=O)NN)C(=O)O)cc1 (configuration not stated) ?
2.1 nM

Query for Dihydrofolate reductase (Lactobacillus casei): what ID50 does the record show for CN(Cc1cnc2nc(N)nc(N)c2n1)c1ccc(C(=O)NC(CCC(=O)NN)C(=O)OC(C)(C)C)cc1 (configuration not stated) ?
170 nM

Query for Dihydrofolate reductase (Lactobacillus casei): what ID50 does the record show for CCCCNC(=O)CCC(NC(=O)c1ccc(N(C)Cc2cnc3nc(N)nc(N)c3n2)cc1)C(=O)O (configuration not stated) ?
53 nM

Query for Dihydrofolate reductase (Lactobacillus casei): what ID50 does the record show for COC(=O)CCC(NC(=O)c1ccc(N(C)Cc2cnc3nc(N)nc(N)c3n2)cc1)C(=O)OC(C)(C)C (configuration not stated) ?
200 nM

Query for Dihydrofolate reductase (Lactobacillus casei): what ID50 does the record show for CN(Cc1cnc2nc(N)nc(N)c2n1)c1ccc(C(=O)NC(CCC(=O)O)C(=O)OC(C)(C)C)cc1 (configuration not stated) ?
36 nM

Query for Dihydrofolate reductase (Lactobacillus casei): what ID50 does the record show for CN(Cc1cnc2nc(N)nc(N)c2n1)c1ccc(C(=O)NC(CCC(=O)OC(C)(C)C)C(=O)O)cc1 (configuration not stated) ?
25 nM

Query for Dihydrofolate reductase (Lactobacillus casei): what ID50 does the record show for COC(=O)C(CCC(=O)OC(C)(C)C)NC(=O)c1ccc(N(C)Cc2cnc3nc(N)nc(N)c3n2)cc1 (configuration not stated) ?
330 nM
